The values you see were collected from patent US4835185A.

- ASSAY_NOTES: Rumen degradation of KIC (nylon bag technique)
- Design: species or system ruminants (rumen)
- CONDITIONS_USED: estimated, Example IV, read-out: uncoated KIC degraded in the rumen
MEASUREMENT_NAME: degraded (%)
Write the number in % without appending the unit.

# degraded of CC(C)CC(=O)C(=O)O [KIC, alpha-ketoisocaproate] = 95

----------
- ASSAY_NOTES: Rumen degradation of KIC (nylon bag technique)
- Design: species or system ruminants (rumen)
- CONDITIONS_USED: "as much as", unprotected, read-out: KIC that may be lost by rumen destruction
MEASUREMENT_NAME: degraded

# degraded of CC(C)CC(=O)C(=O)O [KIC, alpha-ketoisocaproate] = 90 to 95%
